Target Of Assay: AmphiAmR11 (Branchiostoma floridae, UniProt A0PF35)
Sequence (A0PF35 entry or part of it): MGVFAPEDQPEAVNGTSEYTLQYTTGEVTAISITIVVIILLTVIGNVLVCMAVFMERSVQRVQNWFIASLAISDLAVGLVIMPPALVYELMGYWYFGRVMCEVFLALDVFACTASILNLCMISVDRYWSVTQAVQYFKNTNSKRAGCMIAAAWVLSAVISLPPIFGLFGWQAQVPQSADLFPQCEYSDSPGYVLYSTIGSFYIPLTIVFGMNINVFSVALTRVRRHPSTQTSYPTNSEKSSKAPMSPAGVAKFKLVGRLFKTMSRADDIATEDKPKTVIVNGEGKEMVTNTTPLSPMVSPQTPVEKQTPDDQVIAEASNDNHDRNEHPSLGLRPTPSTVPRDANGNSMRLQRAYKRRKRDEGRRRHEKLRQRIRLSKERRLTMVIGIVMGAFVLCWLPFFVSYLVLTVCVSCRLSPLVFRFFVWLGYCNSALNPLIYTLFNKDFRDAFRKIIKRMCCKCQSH
Protocol: Inhibition of forskolin-stimulated cAMP levels in AmphiAmR11-expressing CHO-K1 cells (agonist mode)
Format: cell-based
Measurement Conditions: 1 µM agonist, 10 µM forskolin, 100 µM IBMX, 20 min
Counter-ions that a name gives are not always drawn.
Property Name: Effect on forskolin-stimulated cAMP levels at 1 µM

1. CNC[C@H](O)c1cccc(O)c1 [phenylephrine, (R)-(-)-phenylephrine hydrochloride]    little or no effect
2. CC(C)NCC(O)c1ccc(O)c(O)c1 (racemic) [isoproterenol, (±)-isoproterenol hydrochloride]    little or no effect

====

Target Of Assay: AmphiAmR11 (Branchiostoma floridae)
Protocol: Calcium mobilisation in AmphiAmR11-expressing CHO-K1 cells (Fura-2, percentage of responding cells per field of view)
Type: cell-based
Measurement Conditions: 3 minutes exposure; read-out: EC50 for calcium mobilisation (percentage of responding cells per field of view)
Counter-ions that a name gives are not always drawn.
Property Name: EC50 (nM)

1) NCCc1ccc(O)cc1 [tyramine, tyramine hydrochloride]    767

====

Target Of Assay: UniProtKB A0PF35
Protocol: cell-based
Type: cell-based
Counter-ions that a name gives are not always drawn.
Property Name: EC50 (nM)

1. NCCc1ccc(O)c(O)c1 [dopamine, dopamine hydrochloride]    470

====

# maps each entry to its pEC50
Target Of Assay: AmphiAmR11 (Branchiostoma floridae, UniProt A0PF35)
Protocol: Inhibition of forskolin-stimulated cAMP levels in AmphiAmR11-expressing CHO-K1 cells (agonist mode)
Type: cell-based
Measurement Conditions: 10 µM forskolin, 100 µM IBMX, 20 min; full concentration response curves; read-out: EC50 for decrease in forskolin-stimulated cAMP levels
pEC50: −log10 of the molar value. Structures can show the parent of a compound that is named as a salt.
Property Name: pEC50

1. Oc1cc2c(cc1O)[C@@H](c1ccccc1)CNCC2    6.10
2. NCC(O)c1ccc(O)cc1 (racemic) [octopamine, (±)-p-octopamine hydrochloride]    5.89
3. CC(N)c1ccccc1 (racemic) [phenylethylamine, (±)-1-phenylethylamine]    7.78
4. c1ccc2c(CC3=NCCN3)cccc2c1 [naphazoline, naphazoline hydrochloride]    9.54
5. COc1cccc(OC)c1OCCNCC1COc2ccccc2O1 (stereo not shown)    7.49
6. NCCc1ccc(O)cc1 [tyramine, tyramine hydrochloride]    8.13
7. Br.C=CCN1CCc2c(cc(O)c(O)c2Cl)C(c2ccccc2)C1 (racemic)    5.65

====

Target Of Assay: AmphiAmR11 (Branchiostoma floridae, UniProt A0PF35)
Protocol: ERK1/2 phosphorylation in AmphiAmR11-expressing CHO-K1 cells (Western blotting)
Format: cell-based
pEC50: −log10 of the molar value. Counter-ions that a name gives are not always drawn.
Property Name: pEC50

1. NCCc1ccc(O)c(O)c1 [dopamine, dopamine hydrochloride]    8.90
2. NCCc1ccc(O)cc1 [tyramine, tyramine hydrochloride]    7.74

====

Target Of Assay: AmphiAmR11 (Branchiostoma floridae)
Protocol: Inhibition of forskolin-stimulated cAMP levels in AmphiAmR11-expressing CHO-K1 cells (agonist mode)
Type: cell-based
pEC50: −log10 of the molar value. Structures can show the parent of a compound that is named as a salt.
Property Name: pEC50

1) NCCc1ccc(O)c(O)c1 [dopamine, dopamine hydrochloride]    7.78
2) COC(=O)[C@@H]1[C@H]2C[C@H]3c4[nH]c5ccccc5c4CCN3C[C@@H]2CC[C@@H]1O [yohimbine, yohimbine hydrochloride]    7.77
3) CNC[C@H](O)c1ccc(O)c(O)c1 [adrenaline, (-)-adrenaline]    5.87
4) NC[C@H](O)c1ccc(O)c(O)c1 [noradrenaline, (-)-noradrenaline hydrochloride]    6.07

====

Target Of Assay: AmphiAmR11 (Branchiostoma floridae, UniProt A0PF35)
Protocol: cell-based
Format: cell-based
Measurement Conditions: after pertussis toxin
Where a name gives a salt, the structure may show the parent alone.
Property Name: Concentrations coupling AmphiAmR11 to an increase in cAMP levels

1. NC[C@H](O)c1ccc(O)c(O)c1 [noradrenaline, (-)-noradrenaline hydrochloride]    above 1 µM
2. NCCc1ccc(O)cc1 [tyramine, tyramine hydrochloride]    above 1 µM
3. CC(N)c1ccccc1 (racemic) [phenylethylamine, (±)-1-phenylethylamine]    above 1 µM

====

Target Of Assay: AmphiAmR11 (Branchiostoma floridae)
Protocol: ERK1/2 phosphorylation in AmphiAmR11-expressing CHO-K1 cells (Western blotting)
Assay type: cell-based
Measurement Conditions: 10 nM biogenic amine, 5 min
Structures can show the parent of a compound that is named as a salt.
Property Name: Effect on ERK1/2 phosphorylation at 10 nM

1) NC[C@H](O)c1ccc(O)c(O)c1 [noradrenaline, (-)-noradrenaline hydrochloride]    not able to increase
2) NCC(O)c1ccc(O)cc1 (racemic) [octopamine, (±)-p-octopamine hydrochloride]    not able to increase
3) NCCc1c[nH]cn1 [histamine, histamine dihydrochloride]    not able to increase
4) CNCC(O)c1ccc(O)cc1 (racemic) [synephrine, (±)-synephrine]    not able to increase

====

Target Of Assay: AmphiAmR11 (Branchiostoma floridae, UniProt A0PF35)
Protocol: ERK1/2 phosphorylation in AmphiAmR11-expressing CHO-K1 cells (Western blotting)
Format: cell-based
Measurement Conditions: 1 µM synthetic agonist, 5 min; dopamine as reference
Counter-ions that a name gives are not always drawn.
Property Name: Effect on ERK1/2 phosphorylation at 1 µM

1) CC(C)NCC(O)c1ccc(O)c(O)c1 (racemic) [isoproterenol, (±)-isoproterenol hydrochloride]    little or no effect
2) CNC[C@H](O)c1cccc(O)c1 [phenylephrine, (R)-(-)-phenylephrine hydrochloride]    little or no effect

====

Target Of Assay: AmphiAmR11 (Branchiostoma floridae, UniProt A0PF35)
Protocol: Inhibition of forskolin-stimulated cAMP levels in AmphiAmR11-expressing CHO-K1 cells (agonist mode)
Assay type: cell-based
Structures can show the parent of a compound that is named as a salt.
Property Name: EC50 (nM)

1) CNCC(O)c1ccc(O)cc1 (racemic) [synephrine, (±)-synephrine]    1650
2) COC(=O)[C@H]1[C@H]2C[C@H]3c4[nH]c5ccccc5c4CCN3C[C@H]2CC[C@@H]1O [rauwolscine, rauwolscine hydrochloride]    121
3) Clc1cccc(Cl)c1N=C1NCCN1 [clonidine, clonidine hydrochloride]    623
4) Brc1c(NC2=NCCN2)ccc2nccnc12 [UK14,304, UK14304]    350

====

Target Of Assay: AmphiAmR11 (Branchiostoma floridae)
Protocol: Block of dopamine-induced ERK1/2 activation in AmphiAmR11-expressing CHO-K1 cells by antagonists
Assay type: cell-based
Measurement Conditions: 1 µM antagonist, 10 nM dopamine, 5 min
Where a name gives a salt, the structure may show the parent alone.
Property Name: Block of dopamine-induced ERK1/2 activation

1. COC(=O)[C@H]1[C@H]2C[C@H]3c4[nH]c5ccccc5c4CCN3C[C@H]2CC[C@@H]1O [rauwolscine, rauwolscine hydrochloride]    no significant effect
2. Cl.Cl.OCCN1CCN(CC/C=C2/c3ccccc3Sc3ccc(C(F)(F)F)cc32)CC1 [flupenthixol, cis-(Z)-flupenthixol dihydrochloride]    no significant effect
3. COC(=O)[C@@H]1[C@H]2C[C@H]3c4[nH]c5ccccc5c4CCN3C[C@@H]2CC[C@@H]1O [yohimbine, yohimbine hydrochloride]    no significant effect
4. CCN(CC)CCNC(=O)c1cc(Cl)c(N)cc1OC [metoclopramide, metoclopramide hydrochloride]    no significant effect
5. CC(C)(C)[C@]1(O)CCN2C[C@H]3c4ccccc4CCc4cccc(c43)[C@@H]2C1 [butaclamol, (+)-butaclamol hydrochloride]    no significant effect
6. O=C(CCCN1CCC2(CC1)C(=O)NCN2c1ccccc1)c1ccc(F)cc1 [spiperone, spiperone hydrochloride]    no significant effect
